- Tested on: HeLa
- Method notes: Ability to inhibit 50% growth of HeLa cells
- Assay type: functional, cell-based
- Assay setup: Homo sapiens
Reported log10 of IC50 values for the following compounds.
Log10 applied to IC50; unit prior to transform: µM.

Check out these entries, answers already filled in.
Inquiry: Give a short answer stating reported log10 of IC50 for NCCCNCCCCCCCNCCCN .
Reply text: 2.30

Inquiry: Give a short answer stating reported log10 of IC50 for c1ccc(CCNCCCNCCCCCCCNCCCNCCc2ccccc2)cc1 .
Reply text: 1.30

***
Inquiry: Give a short answer stating reported log10 of IC50 for C=C(CNC)CNCCCCCCCCNCC(=C)CNC .
Reply text: 2.10

Inquiry: Give a short answer stating reported log10 of IC50 for NCCCNCCCN .
Reply text: 2.00

Inquiry: Give a short answer stating reported log10 of IC50 for CCCNCCCNCCCCCCCNCCCNCCC .
Reply text: 2.48

====

Reported pIC50 values for the following molecules.
- System: HeLa
- Method notes: Ability to inhibit 50% growth of HeLa cells
- Assay type: functional, cell-based
- Assay setup: Homo sapiens
The meaning of pIC50 here: minus log10 of the concentration in molar units.

Inquiry: Give a short answer stating reported pIC50 for c1ccc(CNCCCNCCCCCCCNCCCNCc2ccccc2)cc1 .
Reply text: 5.30

Inquiry: Give a short answer stating reported pIC50 for NCCCNCC(F)(F)CCN .
Reply text: 3.82

Inquiry: Give a short answer stating reported pIC50 for NCCCNCCCCCCCCCNCCCN .
Reply text: 4.52

====

- System: HeLa
- Method notes: Ability to inhibit 50% growth of HeLa cells
- Format: functional, cell-based
- Assay setup: Homo sapiens
Ranges used to classify IC50: lowest = under 20 µM, middle = from 20 µM up to 100 µM, highest = 100 µM and over

# count of solved cases: 4
Inquiry: Exam item: assign CNCC(C)CNCCCCCCCNCC(C)CNC (centres undefined) to the correct category.
Reply text: highest

Inquiry: Exam item: assign NCCCNCCCC1CCC(CCCNCCCN)CC1 (centres undefined) to the correct category.
Reply text: middle

Inquiry: Exam item: assign NCCCCSCCCN to the correct category.
Reply text: highest

Inquiry: Exam item: assign c1ccc(CNCCCNCCCCCCNCCCNCc2ccccc2)cc1 to the correct category.
Reply text: middle

***
Inquiry: Exam item: assign NCCCCN [PUTRESCINE] to the correct category.
Reply text: highest

Inquiry: Exam item: assign NCCCNCCCCCCCCNCCCN to the correct category.
Reply text: middle

Inquiry: Exam item: assign c1ccc(CNCCNCCCCCCCCCCNCCNCc2ccccc2)cc1 to the correct category.
Reply text: lowest

Inquiry: Exam item: assign NCCCc1ccc(CCCN)cc1 to the correct category.
Reply text: highest

Inquiry: Exam item: assign NCCCNCCCCCCCCCCNCCCN to the correct category.
Reply text: lowest

Inquiry: Exam item: assign CCCCNCCCNCCCCCCCCNCCCNCCCC to the correct category.
Reply text: highest

====

- Tested on: HeLa
- Method notes: Ability to inhibit 50% growth of HeLa cells
- Assay type: functional, cell-based
- Assay setup: Homo sapiens
Measure name: pIC50
The meaning of pIC50 here: minus log10 of the concentration in molar units.

Inquiry: Give a short answer stating reported pIC50 for NCCCNCCCc1ccc(CCCNCCCN)cc1 .
Reply text: 3.80

Inquiry: Give a short answer stating reported pIC50 for c1ccc(CNCCCNCCCCCCCCCNCCCNCc2ccccc2)cc1 .
Reply text: 5.00

Inquiry: Give a short answer stating reported pIC50 for c1ccc(CNCCCNCCCCCCCCCCNCCCNCc2ccccc2)cc1 .
Reply text: 6.00

Inquiry: Give a short answer stating reported pIC50 for CCNCCCNCCCCCCCCNCCCNCC .
Reply text: 3.70

Inquiry: Give a short answer stating reported pIC50 for CNCCCNCCCCCCCNCCCNC .
Reply text: 3.30

***
Inquiry: Give a short answer stating reported pIC50 for c1ccc(CNCCCNCCCCCCCCNCCCNCc2ccccc2)cc1 .
Reply text: 4.82

Inquiry: Give a short answer stating reported pIC50 for CNC/C(=C\Cl)CNCCCCCCCNC/C(=C/Cl)CNC .
Reply text: 3.90

Inquiry: Give a short answer stating reported pIC50 for c1ccc(CNCCCNCCCCNCCCNCc2ccccc2)cc1 .
Reply text: 5.00

Inquiry: Give a short answer stating reported pIC50 for c1ccc(CNCCCNCCCCCNCCCNCc2ccccc2)cc1 .
Reply text: 4.10

Inquiry: Give a short answer stating reported pIC50 for c1ccc(CNCCNCCCCCCCNCCNCc2ccccc2)cc1 .
Reply text: 4.22

====

Reported pIC50 values for the following compounds.
- Test system: HeLa
- Method notes: Ability to inhibit 50% growth of HeLa cells
- Format: functional, cell-based
- Assay setup: Homo sapiens
pIC50: −log10 of the molar value.

Inquiry: Give a short answer stating reported pIC50 for c1ccc(CNCCCCNCCCCCCCCNCCCCNCc2ccccc2)cc1 .
Reply text: < 3.30

Inquiry: Give a short answer stating reported pIC50 for c1ccc(CNCCCCNCCCCCCCNCCCCNCc2ccccc2)cc1 .
Reply text: < 3.30

Below: the item to evaluate.
Inquiry: Give a short answer stating reported pIC50 for CC(CN)CNCCCCCCCNCC(C)CN (stereo not drawn) .
Reply text: < 3.30

====

- Tested on: HeLa
- Method notes: Ability to inhibit 50% growth of HeLa cells
- Format: functional, cell-based
- Assay setup: Homo sapiens
Measure name: pIC50
The meaning of pIC50 here: minus log10 of the concentration in molar units.

Check out these entries, answers already filled in.
Inquiry: Give a short answer stating reported pIC50 for CCNCCCNCCCCCCCNCCCNCC .
Reply text: 4.00

Inquiry: Give a short answer stating reported pIC50 for CC(CCN)NCCCCCCCCNC(C)CCN (centres undefined) .
Reply text: 4.00

Inquiry: Give a short answer stating reported pIC50 for c1ccc(CNCCNCCCCCCCCNCCNCc2ccccc2)cc1 .
Reply text: 4.70

Below: the item to evaluate.
Inquiry: Give a short answer stating reported pIC50 for c1ccc(CCCNCCCNCCCCCCCNCCCNCCCc2ccccc2)cc1 .
Reply text: 4.70

====

Reported IC50 values for the following compounds.
- Test system: HeLa
- Method notes: Ability to inhibit 50% growth of HeLa cells
- Format: functional, cell-based
- Assay setup: Homo sapiens
Unit µM implied. Number only.

Check out these entries, answers already filled in.
Inquiry: Give a short answer stating reported IC50 for NCCCNCCCCNCCCN .
Reply text: 50

Inquiry: Give a short answer stating reported IC50 for c1ccc(CNCCNCCCCCCNCCNCc2ccccc2)cc1 .
Reply text: 75

Below: the item to evaluate.
Inquiry: Give a short answer stating reported IC50 for NCCCCNCCCN .
Reply text: 100

Hey, just so you know, these numbers are from ChEMBL document CHEMBL1125175.
